Each entry below carries its reported % Blocking.
experimental_target: T1, human CCR8 (human, UniProt P51685 1-355)
T1 construct: Native CCR8 on human PBMC (CCR8+ CD3+ or CCR8+ CD4+ lymphocytes); also called chemokine (C-C motif) receptor 8
T1 sequence (P51685 whole entry): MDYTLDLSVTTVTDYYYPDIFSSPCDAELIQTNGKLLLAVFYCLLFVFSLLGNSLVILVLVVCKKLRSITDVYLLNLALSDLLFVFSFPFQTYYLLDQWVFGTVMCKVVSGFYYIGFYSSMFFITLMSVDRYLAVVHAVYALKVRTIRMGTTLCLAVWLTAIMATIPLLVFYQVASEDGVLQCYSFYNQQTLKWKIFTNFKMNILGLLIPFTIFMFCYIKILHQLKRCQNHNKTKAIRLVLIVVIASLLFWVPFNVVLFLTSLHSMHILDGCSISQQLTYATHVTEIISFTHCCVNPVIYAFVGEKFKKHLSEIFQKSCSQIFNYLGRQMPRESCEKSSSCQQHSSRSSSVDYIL
assay: flow blocking, PBMC CCR8+CD3+; competitor PE-433H
Unit % implied. Number only.

Take a look at these entries with their results.
AB10 (antibody, V domains shown, Hybridoma monoclonal; also called antibody 10; clone 10) VH: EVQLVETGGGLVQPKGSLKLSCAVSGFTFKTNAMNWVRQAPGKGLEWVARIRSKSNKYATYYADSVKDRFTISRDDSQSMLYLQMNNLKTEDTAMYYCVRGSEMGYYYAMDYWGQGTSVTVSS VL: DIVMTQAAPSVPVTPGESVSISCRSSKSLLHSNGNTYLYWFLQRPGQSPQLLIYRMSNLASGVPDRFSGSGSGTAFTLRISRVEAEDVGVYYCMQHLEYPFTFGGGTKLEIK	32.1
AB5 (antibody, V domains shown, Hybridoma monoclonal; Same VH/VL entries as AB6; also called antibody 5; clone 5) VH: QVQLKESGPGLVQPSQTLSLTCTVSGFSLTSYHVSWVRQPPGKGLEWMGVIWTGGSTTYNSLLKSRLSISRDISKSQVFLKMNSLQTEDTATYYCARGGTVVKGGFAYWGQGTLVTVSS VL: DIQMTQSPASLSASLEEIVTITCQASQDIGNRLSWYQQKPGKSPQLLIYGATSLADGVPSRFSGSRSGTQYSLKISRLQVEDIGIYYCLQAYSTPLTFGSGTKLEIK	-5.58

Read the next record carefully.
Any idea what % Blocking was measured for AB13 (antibody, V domains shown, Hybridoma monoclonal; also called antibody 13; clone 13) VH: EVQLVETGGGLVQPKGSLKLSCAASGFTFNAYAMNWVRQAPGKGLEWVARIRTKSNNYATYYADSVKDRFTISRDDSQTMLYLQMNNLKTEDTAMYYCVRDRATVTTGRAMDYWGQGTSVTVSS VL: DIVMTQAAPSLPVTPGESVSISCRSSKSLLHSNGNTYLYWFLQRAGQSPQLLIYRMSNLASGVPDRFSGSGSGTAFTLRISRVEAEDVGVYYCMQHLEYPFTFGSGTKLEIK ?
8.18
